Data credit: ChEMBL document CHEMBL4177737

Answer each item with its documented EC50.
molecular target: UniProt:P51449; assay: Inverse agonist activity at Gal4-tagged human RORgammat ligand binding domain expressed in human Jurkat cells by native IL17 promoter driven luciferase reporter gene assay; assay type: cell-based
Sequence (P51449 whole entry, the tested form may be a part): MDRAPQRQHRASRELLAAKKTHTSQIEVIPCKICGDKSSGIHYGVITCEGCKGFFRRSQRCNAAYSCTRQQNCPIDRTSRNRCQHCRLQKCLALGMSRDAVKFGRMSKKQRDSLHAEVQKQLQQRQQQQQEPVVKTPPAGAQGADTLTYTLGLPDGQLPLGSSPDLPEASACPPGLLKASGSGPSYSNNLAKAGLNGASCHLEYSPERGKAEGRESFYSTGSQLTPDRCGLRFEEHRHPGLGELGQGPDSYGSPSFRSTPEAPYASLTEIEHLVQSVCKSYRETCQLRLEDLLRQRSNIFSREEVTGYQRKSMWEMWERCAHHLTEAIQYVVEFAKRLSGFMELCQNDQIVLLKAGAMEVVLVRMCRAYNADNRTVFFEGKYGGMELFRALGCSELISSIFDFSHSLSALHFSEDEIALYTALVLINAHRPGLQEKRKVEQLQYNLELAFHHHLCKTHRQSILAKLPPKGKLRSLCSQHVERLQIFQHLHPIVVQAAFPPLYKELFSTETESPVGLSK
Respond with a number, then the unit of measure.

Ask | Note down EC50 recorded for O=C(CC1CN(S(=O)(=O)c2ccc(F)cc2)c2ccc(C(O)(C(F)(F)F)C(F)(F)F)cc2S1)N1CC(O)C1 (centres undefined)
Reply | 114 nM

Ask | Kindly indicate its recorded EC50. Item: CC(C)(O)CC(=O)NCC1CN(S(=O)(=O)c2ccc(F)cc2)c2ccc(C(O)(C(F)(F)F)C(F)(F)F)cc2S1 (centres undefined)
Reply | 80 nM

Ask | Answer with the recorded EC50 of O=S(=O)(c1cccc(F)c1)N1CCSc2cc(C(O)(C(F)(F)F)C(F)(F)F)ccc21 only.
Reply | 2040 nM

Ask | Give the value of EC50 reported for the following: CC(C)(O)CNC(=O)CC1CN(S(=O)(=O)c2ccc(F)cc2)c2ccc(C(O)(C(F)(F)F)C(F)(F)F)cc2S1 (centres undefined)
Reply | 31 nM

* * *

molecular target: UniProtKB Q13133; test: Agonist activity at GAL4-tagged human LXRalpha assessed as receptor activation expressed in African green monkey CV1 cells by luciferase reporter gene assay
Sequence (Q13133 whole entry, the tested form may be a part): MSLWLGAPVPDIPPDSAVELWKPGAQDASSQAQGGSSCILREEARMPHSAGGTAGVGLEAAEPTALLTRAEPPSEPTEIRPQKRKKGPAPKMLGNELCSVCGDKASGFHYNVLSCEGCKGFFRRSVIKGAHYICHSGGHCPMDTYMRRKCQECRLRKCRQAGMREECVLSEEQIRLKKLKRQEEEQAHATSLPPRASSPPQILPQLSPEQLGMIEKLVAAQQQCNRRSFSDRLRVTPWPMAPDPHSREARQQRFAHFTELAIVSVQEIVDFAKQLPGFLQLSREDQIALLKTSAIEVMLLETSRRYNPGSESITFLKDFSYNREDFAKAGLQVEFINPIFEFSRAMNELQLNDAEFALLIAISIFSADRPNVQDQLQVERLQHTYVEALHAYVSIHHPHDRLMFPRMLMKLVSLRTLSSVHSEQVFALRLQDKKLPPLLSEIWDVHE
Assign EC50 to each entry below.

Ask | Determine its reported EC50: CC(C)(O)[C@H](F)CNC(=O)C[C@@H]1CCc2cc(C(O)(C(F)(F)F)C(F)(F)F)ccc2N1S(=O)(=O)c1ccc(F)cc1
Reply | > 7.5 µM

Ask | # return recorded EC50 for input CC(C)(O)CNC(=O)CC1CSc2cc(C(O)(C(F)(F)F)C(F)(F)F)ccc2N1S(=O)(=O)c1ccc(F)cc1 (stereo in doubt; 30)
Reply | > 7.5 µM

Ask | Complete the entry with EC50 for CC(C)(O)CNC(=O)C[C@@H]1CCc2cc(C(O)(C(F)(F)F)C(F)(F)F)ccc2N1S(=O)(=O)c1ccc(F)cc1
Reply | > 7.5 µM

Ask | Return value of EC50 for input O=C(O)CC1CN(S(=O)(=O)c2ccc(F)cc2)c2ccc(C(O)(C(F)(F)F)C(F)(F)F)cc2S1 (centres undefined) , no commentary.
Reply | > 7.5 µM
